# Read-out: Thrombomodulin, THBD (gene 7056)
# ASSAY DETAILS: BSK_CASM3C_Thrombomodulin: BioMAP Diversity Plus: CASM3C Assay for Thrombomodulin Biomarker Activity (AID 2283051);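 note: thrombomodulin protein level measured by ELISA 24 h after dosing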
# MEASUREMENT SETUP: primary human coronary artery smooth muscle cells; actives raise or lower the signal
Activity calls are given as the source filed them. Rule for the calls: active = hit-call score of the fitted dose curve at least 0.9, where 1 is the maximum; inactive = score below 0.9.
OBSERVABLE: AC50

Example compounds with recorded AC50:
{"COMPOUND": "O=S(=O)(c1ccc(Cl)cc1)c1cc(Cl)c(Cl)cc1Cl", "MEAS VALUE": "8.36 µM (active)"}
{"COMPOUND": "CCC(C)(C#N)N=NC(C)(C#N)CC (configuration not stated)", "MEAS VALUE": "inactive"}
{"COMPOUND": "O=c1oc2ccccc2c(O)c1C(CC(O)c1ccc(-c2ccc(Br)cc2)cc1)c1ccccc1 (configuration not stated)", "MEAS VALUE": "inactive"}
{"COMPOUND": "Nc1c(Oc2ccccc2)cc(O)c2c1C(=O)c1ccccc1C2=O", "MEAS VALUE": "inactive"}
{"COMPOUND": "c1ccc2sc(SNC3CCCCC3)nc2c1", "MEAS VALUE": "inactive"}
{"COMPOUND": "Cc1ccccc1OP(=O)(Oc1ccccc1)Oc1ccccc1", "MEAS VALUE": "inactive"}

Attention now shifts to the item below.
// sample O=C(O)COc1cc(Cl)c(Cl)cc1Cl , its AC50 was inactive

* * *

# ASSAY DETAILS: ATG_NFI_CIS: Attagene CIS-FACTORIAL HepG2 Assay for human Nuclear Factor I (NFI) (AID 2282989)
# MEASUREMENT SETUP: HepG2 cis-regulatory reporter, NFI response element transcription; actives raise or lower the signal
The source made the active and inactive calls. How the source made its calls: active means hit-call score of the fitted dose curve at least 0.9, where 1 is the maximum; inactive means score below 0.9.
// classify into active, inactive

Worked set:
{"COMPOUND": "CN(C)CCN(C)C", "CLASS LABEL": "inactive"}
{"COMPOUND": "CC(C)[C@H](C(=O)OC(C#N)c1cccc(Oc2ccccc2)c1)c1ccc(OC(F)F)cc1 (stereo partly drawn)", "CLASS LABEL": "inactive"}
{"COMPOUND": "CCC[CH2][Sn]([Cl])([Cl])[CH2]CCC", "CLASS LABEL": "active"}

Ask: Recorded test outcome, item Cc1cc(Cl)ccc1OC(C)C(=O)O (stereo not drawn)
Result: inactive

Ask: Dear all, I need the recorded test outcome for CCCCOP(=O)(CCCC)OCCCC , thank you.
Result: inactive

Ask: Look up the recorded call for Nc1c(Oc2ccccc2)cc(O)c2c1C(=O)c1ccccc1C2=O in this test.
Result: inactive

Ask: How did this test come out for CC(C)CC(C)(c1ccc(O)cc1)c1ccc(O)cc1 ?
Result: active

Ask: # outcome recorded in this test, key = Clc1cnc(Oc2ccc(Oc3ncc(Cl)cc3Cl)cc2)c(Cl)c1
Result: inactive

* * *

# ASSAY DETAILS: ATG_XTT_Cytotoxicity: Cytotoxicity Assessment in the Attagene TRANS-FACTORIAL HepG2 Assay (AID 2283584)
Inconclusive results are not listed. Active and inactive are the calls of the source. Rule for the calls: active = hit-call score of the fitted dose curve at least 0.9, where 1 is the maximum; inconclusive = response in the unintended direction; inactive = score below 0.9.
Use one of these outcomes when replying: 1 (yes) for active, 0 (no) for inactive

Below, 5 compounds whose answers are already recorded.
{"COMPOUND": "C=CC(=O)OCC(COC(=O)C=C)(COC(=O)C=C)COC(=O)C=C", "CLASS LABEL": "1 (yes)"}
{"COMPOUND": "O=C1c2ccccc2C(=O)C1C(=O)C(c1ccccc1)c1ccc(Cl)cc1 (centres undefined)", "CLASS LABEL": "0 (no)"}
{"COMPOUND": "C1CCC(C2CCCCC2)CC1", "CLASS LABEL": "0 (no)"}
{"COMPOUND": "O=c1[nH]c(=O)n(Cl)c(=O)n1Cl", "CLASS LABEL": "0 (no)"}
{"COMPOUND": "C=CCCl", "CLASS LABEL": "0 (no)"}

Ask: What outcome does the record of this test show for CCC[CH2][Sn]([CH2]CCC)([CH2]CCC)[CH2]CCC ?
Result: 1 (yes)

Ask: I would be grateful if you could indicate the recorded call for Nc1ccc(N)cc1 .
Result: 0 (no)

Ask: Given Cc1cc(Cl)ccc1O , state the outcome it received in this test.
Result: 0 (no)

Ask: Assay result, entry C[As+](C)(C)CC(=O)[O-] — outcome?
Result: 0 (no)

Reference source: PubChem BioAssay (EPA / NIEHS)
